Biological target: T1, Human Siglec-9 (human, UniProt Q9Y336 18-463)
T1 construct: On transfected CHO cells; also on YTS and KHYG-1 transfectants, primary NK cells and moDC; also called huSiglec-9; CD329
T1 sequence (Q9Y336 18-463): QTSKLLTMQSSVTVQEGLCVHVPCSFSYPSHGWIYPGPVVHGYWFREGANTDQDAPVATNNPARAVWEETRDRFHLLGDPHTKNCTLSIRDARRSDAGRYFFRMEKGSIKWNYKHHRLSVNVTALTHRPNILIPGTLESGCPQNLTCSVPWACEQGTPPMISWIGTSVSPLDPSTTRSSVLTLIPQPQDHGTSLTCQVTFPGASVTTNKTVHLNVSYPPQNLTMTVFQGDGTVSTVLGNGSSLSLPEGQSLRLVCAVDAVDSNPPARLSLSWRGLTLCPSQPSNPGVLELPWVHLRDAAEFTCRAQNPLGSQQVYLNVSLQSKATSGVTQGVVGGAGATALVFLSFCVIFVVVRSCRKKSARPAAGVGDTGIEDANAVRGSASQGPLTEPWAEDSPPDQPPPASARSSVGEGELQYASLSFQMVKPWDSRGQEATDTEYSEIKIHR
Assay: flow cytometry on fresh purified human NK cells, mean of 4 donors
Description: Binding of antibodies on fresh purified human NK cells was tested by titration experiment by flow cytometry. Cells were incubated 1h in Staining Buffer (SB) with primary antibodies at 10 ug/ml and a series of dilution of 1:10. […] Stainings were acquired on a BD FACS Canto II and analyzed using the FlowJo software. EC₅₀ values are shown in the table below in μg/ml (calculated using a 4-parameter logistic fit).
experimental-endpoint: EC50 (µg/mL)
The reply should contain only the number, in µg/mL.

Lookup: Given mAbA (antibody, human IgG1, V domains shown) VH: QVQLQQPGAELVKPGSPVKLSCKASYFTFTSYWMHWVRQRPGQGLEWIGEINPSNGHTNYNEKFESKATLTVDRSSSTAYMQLSSLTSEDSAVFYCANGVESYDFDDALDYWGQGTSVTVSS VL: DIQMTQTTSSLSASLGDRVTISCRASQDINNYLNWYQQKPDGTIKLLIYYTSRLHSGVPSRFSGSGSGTDYSLTINNLEQEDIATYFCQQGNTLPFTFGGGTKLEIK , respond with its EC50.
Found: 0.08

Lookup: Identify measured EC50 associated with mAbC (antibody, human IgG1, V domains shown) VH: QIQLVQSGPELKKPGETVKISCKASGYTFTNYEMNWVKEAPGKGLKWMGWINTYTGESTYADDFKGRFAFSLETSASTVYLQINNLKDEDVATYFCVRDDYGRSYGFAYWGQGTLVTVSA VL: NIVLTQSPASLTVSLGQRANISCRASESVDSYGNSFMHWYQQKPGQPPKLLIYLASKLESGVPARFSGSGSRTDFTLTIDPVETDDAATYYCHQNNEDPPWTFGGGTKLEIK
Found: 0.09
